Experiment: Excipient compatibility study: binary mixtures of Compound B and excipient in open vials, assay and related substances (RS)
Type: physicochemical
Details: week 0
readout: Related substance RRT 1.081 (%)
Output spec: scalar in %, unitless text.

The reported Related substance RRT 1.081 of the compound `CN1CCN(C(=O)[C@H](CCCN[C@@H]2C[C@H]2c2ccc(F)cc2)NC(=O)c2ccc(-n3ccnn3)cc2)CC1.Cc1ccc(S(=O)(=O)O)cc1` was 0.0589

---

Test: Excipient compatibility study: binary mixtures of Compound B and excipient in open vials, assay and related substances (RS)
Type: physicochemical
Details: 1 week, 50° C./75% RH
readout: Related substance RRT 1.081 (%)
Respond numerically; units are % and should not be typed.

The value of Related substance RRT 1.081 measured for the molecule CN1CCN(C(=O)[C@H](CCCN[C@@H]2C[C@H]2c2ccc(F)cc2)NC(=O)c2ccc(-n3ccnn3)cc2)CC1.Cc1ccc(S(=O)(=O)O)cc1 [Compound B] turned out to be 0.0649
